The origin of these recorded values is paper PMC7774954.

Tested on: 266 human PDZ domains (PDZome)
Test: Holdup assay (chromatographic retention, PDZome-binding profile, BI)
Parameters: key: binding intensity: 0.00 = no binding, 1.00 = maximal binding
Conditions: PDZ domain PARD6G-1
*1 amine or outer side, *2 acyl side, *3 side chain or, on linkers, in order; H or OH if unused. Where a SMILES comes first, the peptide text is derived from it. The star is where a group is joined. X1 = O=C(CCCC[C@@H]1SC[C@@H]2NC(=O)N[C@@H]21)NCCCOCCOCCOCCCN*; Suc = O=C(CCC(=O)[*:2])[*:1]
// values below are reported BI

{"COMPOUND": "CC[C@H](C)[C@H](NC(=O)[C@H](CCC(N)=O)NC(=O)[C@@H](NC(=O)[C@H](Cc1c[nH]cn1)NC(=O)[C@H](CCC(N)=O)NC(=O)[C@H](CC(=O)O)NC(=O)[C@H](CCC(=O)O)NC(=O)[C@H](CC(=O)O)NC(=O)[C@H](Cc1ccccc1)NC(=O)[C@@H]1CCCN1C(=O)CCC(=O)NCCCOCCOCCOCCCNC(=O)CCCC[C@@H]1SC[C@@H]2NC(=O)N[C@@H]21)[C@@H](C)O)C(=O)N[C@H](C(=O)N[C@@H](CCCCN)C(=O)N[C@H](C(=O)O)C(C)C)[C@@H](C)O [PTEN_13] ({X1-Suc}-PFDEDQHTQITKV-OH)", "BI": -0.065}
{"COMPOUND": "CC[C@H](C)[C@H](NC(=O)[C@H](CCC(N)=O)NC(=O)[C@@H](NC(=O)[C@H](Cc1c[nH]cn1)NC(=O)[C@H](CCC(N)=O)NC(=O)[C@H](CC(=O)O)NC(=O)[C@H](CCC(=O)O)NC(=O)[C@H](CC(=O)O)NC(=O)CCC(=O)NCCCOCCOCCOCCCNC(=O)CCCC[C@@H]1SC[C@@H]2NC(=O)N[C@@H]21)[C@@H](C)O)C(=O)N[C@H](C(=O)N[C@@H](CCCNC(=N)N)C(=O)N[C@H](C(=O)O)C(C)C)[C@@H](C)O [PTEN_KR] ({X1-Suc}-DEDQHTQITRV-OH)", "BI": -0.023}
{"COMPOUND": "CC[C@H](C)[C@H](NC(=O)[C@H](CCC(N)=O)NC(=O)[C@@H](NC(=O)[C@H](Cc1c[nH]cn1)NC(=O)[C@H](CCC(N)=O)NC(=O)[C@H](CC(=O)O)NC(=O)[C@H](CCC(=O)O)NC(=O)[C@H](CC(=O)O)NC(=O)CCC(=O)NCCCOCCOCCOCCCNC(=O)CCCC[C@@H]1SC[C@@H]2NC(=O)N[C@@H]21)[C@@H](C)O)C(=O)N[C@H](C(=O)N[C@@H](CCCCNC(C)=O)C(=O)N[C@H](C(=O)O)C(C)C)[C@@H](C)O [PTEN_Ac]", "BI": -0.034}
{"COMPOUND": "CC[C@H](C)[C@H](NC(=O)[C@H](CCC(N)=O)NC(=O)[C@@H](NC(=O)[C@H](Cc1c[nH]cn1)NC(=O)[C@H](CCC(N)=O)NC(=O)[C@H](CC(=O)O)NC(=O)[C@H](CCC(=O)O)NC(=O)[C@H](CC(=O)O)NC(=O)CCC(=O)NCCCOCCOCCOCCCNC(=O)CCCC[C@@H]1SC[C@@H]2NC(=O)N[C@@H]21)[C@@H](C)O)C(=O)N[C@H](C(=O)N[C@@H](CCCCN)C(=O)N[C@H](C(=O)O)C(C)C)[C@@H](C)O [PTEN_11]", "BI": -0.088}

====

Biological target: SNX27 PDZ 1 (Homo sapiens)
*1 amine or outer side, *2 acyl side, *3 side chain or, on linkers, in order; H or OH if unused. Where a SMILES comes first, the peptide text is derived from it. The star is where a group is joined. X1 = O=C(CCCC[C@@H]1SC[C@@H]2NC(=O)N[C@@H]21)NCCCOCCOCCOCCCN*; Suc = O=C(CCC(=O)[*:2])[*:1]

{"COMPOUND": "CC[C@H](C)[C@H](NC(=O)[C@H](CCC(N)=O)NC(=O)[C@@H](NC(=O)[C@H](Cc1c[nH]cn1)NC(=O)[C@H](CCC(N)=O)NC(=O)[C@H](CC(=O)O)NC(=O)[C@H](CCC(=O)O)NC(=O)[C@H](CC(=O)O)NC(=O)CCC(=O)NCCCOCCOCCOCCCNC(=O)CCCC[C@@H]1SC[C@@H]2NC(=O)N[C@@H]21)[C@@H](C)O)C(=O)N[C@H](C(=O)N[C@@H](CCCNC(=N)N)C(=O)N[C@H](C(=O)O)C(C)C)[C@@H](C)O [PTEN_KR] ({X1-Suc}-DEDQHTQITRV-OH)", "TARGET_OR_SYSTEM": "SNX27 PDZ 1 (Homo sapiens)", "Kd": "8.32 µM"}

====

Test system: 266 human PDZ domains (PDZome)
Assay: Holdup assay (chromatographic retention, PDZome-binding profile, BI)
Set-up: key: binding intensity: 0.00 = no binding, 1.00 = maximal binding
Conditions: PDZ domain SNTG2-1
*1 amine or outer side, *2 acyl side, *3 side chain or, on linkers, in order; H or OH if unused. Where a SMILES comes first, the peptide text is derived from it. The star is where a group is joined. X1 = O=C(CCCC[C@@H]1SC[C@@H]2NC(=O)N[C@@H]21)NCCCOCCOCCOCCCN*; Suc = O=C(CCC(=O)[*:2])[*:1]

{"COMPOUND": "CC[C@H](C)[C@H](NC(=O)[C@H](CCC(N)=O)NC(=O)[C@@H](NC(=O)[C@H](Cc1c[nH]cn1)NC(=O)[C@H](CCC(N)=O)NC(=O)[C@H](CC(=O)O)NC(=O)[C@H](CCC(=O)O)NC(=O)[C@H](CC(=O)O)NC(=O)CCC(=O)NCCCOCCOCCOCCCNC(=O)CCCC[C@@H]1SC[C@@H]2NC(=O)N[C@@H]21)[C@@H](C)O)C(=O)N[C@H](C(=O)N[C@@H](CCCCN)C(=O)N[C@H](C(=O)O)C(C)C)[C@@H](C)O", "BI": 0.056}
{"COMPOUND": "CC[C@H](C)[C@H](NC(=O)[C@H](CCC(N)=O)NC(=O)[C@@H](NC(=O)[C@H](Cc1c[nH]cn1)NC(=O)[C@H](CCC(N)=O)NC(=O)[C@H](CC(=O)O)NC(=O)[C@H](CCC(=O)O)NC(=O)[C@H](CC(=O)O)NC(=O)[C@H](Cc1ccccc1)NC(=O)[C@@H]1CCCN1C(=O)CCC(=O)NCCCOCCOCCOCCCNC(=O)CCCC[C@@H]1SC[C@@H]2NC(=O)N[C@@H]21)[C@@H](C)O)C(=O)N[C@H](C(=O)N[C@@H](CCCCN)C(=O)N[C@H](C(=O)O)C(C)C)[C@@H](C)O [PTEN_13] ({X1-Suc}-PFDEDQHTQITKV-OH)", "BI": 0.015}
{"COMPOUND": "CC[C@H](C)[C@H](NC(=O)[C@H](CCC(N)=O)NC(=O)[C@@H](NC(=O)[C@H](Cc1c[nH]cn1)NC(=O)[C@H](CCC(N)=O)NC(=O)[C@H](CC(=O)O)NC(=O)[C@H](CCC(=O)O)NC(=O)[C@H](CC(=O)O)NC(=O)CCC(=O)NCCCOCCOCCOCCCNC(=O)CCCC[C@@H]1SC[C@@H]2NC(=O)N[C@@H]21)[C@@H](C)O)C(=O)N[C@H](C(=O)N[C@@H](CCCCNC(C)=O)C(=O)N[C@H](C(=O)O)C(C)C)[C@@H](C)O", "BI": -0.077}
{"COMPOUND": "CC[C@H](C)[C@H](NC(=O)[C@H](CCC(N)=O)NC(=O)[C@@H](NC(=O)[C@H](Cc1c[nH]cn1)NC(=O)[C@H](CCC(N)=O)NC(=O)[C@H](CC(=O)O)NC(=O)[C@H](CCC(=O)O)NC(=O)[C@H](CC(=O)O)NC(=O)CCC(=O)NCCCOCCOCCOCCCNC(=O)CCCC[C@@H]1SC[C@@H]2NC(=O)N[C@@H]21)[C@@H](C)O)C(=O)N[C@H](C(=O)N[C@@H](CCCNC(=N)N)C(=O)N[C@H](C(=O)O)C(C)C)[C@@H](C)O [PTEN_KR] ({X1-Suc}-DEDQHTQITRV-OH)", "BI": 0.383}

====

Test system: 266 human PDZ domains (PDZome)
Assay: Holdup assay (chromatographic retention, PDZome-binding profile, BI)
Set-up: key: binding intensity: 0.00 = no binding, 1.00 = maximal binding
Conditions: PDZ domain MPDZ-3
*1 amine or outer side, *2 acyl side, *3 side chain or, on linkers, in order; H or OH if unused. Where a SMILES comes first, the peptide text is derived from it. The star is where a group is joined. X1 = O=C(CCCC[C@@H]1SC[C@@H]2NC(=O)N[C@@H]21)NCCCOCCOCCOCCCN*; Suc = O=C(CCC(=O)[*:2])[*:1]
# key: entry, value: BI
ASSAY_ENDPOINT: BI

{"COMPOUND": "CC[C@H](C)[C@H](NC(=O)[C@H](CCC(N)=O)NC(=O)[C@@H](NC(=O)[C@H](Cc1c[nH]cn1)NC(=O)[C@H](CCC(N)=O)NC(=O)[C@H](CC(=O)O)NC(=O)[C@H](CCC(=O)O)NC(=O)[C@H](CC(=O)O)NC(=O)CCC(=O)NCCCOCCOCCOCCCNC(=O)CCCC[C@@H]1SC[C@@H]2NC(=O)N[C@@H]21)[C@@H](C)O)C(=O)N[C@H](C(=O)N[C@@H](CCCCN)C(=O)N[C@H](C(=O)O)C(C)C)[C@@H](C)O", "MEASURED_NUMBER": 0.079}
{"COMPOUND": "CC[C@H](C)[C@H](NC(=O)[C@H](CCC(N)=O)NC(=O)[C@@H](NC(=O)[C@H](Cc1c[nH]cn1)NC(=O)[C@H](CCC(N)=O)NC(=O)[C@H](CC(=O)O)NC(=O)[C@H](CCC(=O)O)NC(=O)[C@H](CC(=O)O)NC(=O)[C@H](Cc1ccccc1)NC(=O)[C@@H]1CCCN1C(=O)CCC(=O)NCCCOCCOCCOCCCNC(=O)CCCC[C@@H]1SC[C@@H]2NC(=O)N[C@@H]21)[C@@H](C)O)C(=O)N[C@H](C(=O)N[C@@H](CCCCN)C(=O)N[C@H](C(=O)O)C(C)C)[C@@H](C)O [PTEN_13] ({X1-Suc}-PFDEDQHTQITKV-OH)", "MEASURED_NUMBER": 0.139}
{"COMPOUND": "CC[C@H](C)[C@H](NC(=O)[C@H](CCC(N)=O)NC(=O)[C@@H](NC(=O)[C@H](Cc1c[nH]cn1)NC(=O)[C@H](CCC(N)=O)NC(=O)[C@H](CC(=O)O)NC(=O)[C@H](CCC(=O)O)NC(=O)[C@H](CC(=O)O)NC(=O)CCC(=O)NCCCOCCOCCOCCCNC(=O)CCCC[C@@H]1SC[C@@H]2NC(=O)N[C@@H]21)[C@@H](C)O)C(=O)N[C@H](C(=O)N[C@@H](CCCNC(=N)N)C(=O)N[C@H](C(=O)O)C(C)C)[C@@H](C)O [PTEN_KR] ({X1-Suc}-DEDQHTQITRV-OH)", "MEASURED_NUMBER": 0.034}
{"COMPOUND": "CC[C@H](C)[C@H](NC(=O)[C@H](CCC(N)=O)NC(=O)[C@@H](NC(=O)[C@H](Cc1c[nH]cn1)NC(=O)[C@H](CCC(N)=O)NC(=O)[C@H](CC(=O)O)NC(=O)[C@H](CCC(=O)O)NC(=O)[C@H](CC(=O)O)NC(=O)CCC(=O)NCCCOCCOCCOCCCNC(=O)CCCC[C@@H]1SC[C@@H]2NC(=O)N[C@@H]21)[C@@H](C)O)C(=O)N[C@H](C(=O)N[C@@H](CCCCNC(C)=O)C(=O)N[C@H](C(=O)O)C(C)C)[C@@H](C)O", "MEASURED_NUMBER": 0.002}
